# subjectOfTest: ΔF508-CFTR (Homo sapiens, UniProt P13569, DEL508-508)
# Construct: host or cells: CFBE41o-, doxycycline-inducible
# Sequence (P13569 with tags, fused parts or gaps DEL508-508): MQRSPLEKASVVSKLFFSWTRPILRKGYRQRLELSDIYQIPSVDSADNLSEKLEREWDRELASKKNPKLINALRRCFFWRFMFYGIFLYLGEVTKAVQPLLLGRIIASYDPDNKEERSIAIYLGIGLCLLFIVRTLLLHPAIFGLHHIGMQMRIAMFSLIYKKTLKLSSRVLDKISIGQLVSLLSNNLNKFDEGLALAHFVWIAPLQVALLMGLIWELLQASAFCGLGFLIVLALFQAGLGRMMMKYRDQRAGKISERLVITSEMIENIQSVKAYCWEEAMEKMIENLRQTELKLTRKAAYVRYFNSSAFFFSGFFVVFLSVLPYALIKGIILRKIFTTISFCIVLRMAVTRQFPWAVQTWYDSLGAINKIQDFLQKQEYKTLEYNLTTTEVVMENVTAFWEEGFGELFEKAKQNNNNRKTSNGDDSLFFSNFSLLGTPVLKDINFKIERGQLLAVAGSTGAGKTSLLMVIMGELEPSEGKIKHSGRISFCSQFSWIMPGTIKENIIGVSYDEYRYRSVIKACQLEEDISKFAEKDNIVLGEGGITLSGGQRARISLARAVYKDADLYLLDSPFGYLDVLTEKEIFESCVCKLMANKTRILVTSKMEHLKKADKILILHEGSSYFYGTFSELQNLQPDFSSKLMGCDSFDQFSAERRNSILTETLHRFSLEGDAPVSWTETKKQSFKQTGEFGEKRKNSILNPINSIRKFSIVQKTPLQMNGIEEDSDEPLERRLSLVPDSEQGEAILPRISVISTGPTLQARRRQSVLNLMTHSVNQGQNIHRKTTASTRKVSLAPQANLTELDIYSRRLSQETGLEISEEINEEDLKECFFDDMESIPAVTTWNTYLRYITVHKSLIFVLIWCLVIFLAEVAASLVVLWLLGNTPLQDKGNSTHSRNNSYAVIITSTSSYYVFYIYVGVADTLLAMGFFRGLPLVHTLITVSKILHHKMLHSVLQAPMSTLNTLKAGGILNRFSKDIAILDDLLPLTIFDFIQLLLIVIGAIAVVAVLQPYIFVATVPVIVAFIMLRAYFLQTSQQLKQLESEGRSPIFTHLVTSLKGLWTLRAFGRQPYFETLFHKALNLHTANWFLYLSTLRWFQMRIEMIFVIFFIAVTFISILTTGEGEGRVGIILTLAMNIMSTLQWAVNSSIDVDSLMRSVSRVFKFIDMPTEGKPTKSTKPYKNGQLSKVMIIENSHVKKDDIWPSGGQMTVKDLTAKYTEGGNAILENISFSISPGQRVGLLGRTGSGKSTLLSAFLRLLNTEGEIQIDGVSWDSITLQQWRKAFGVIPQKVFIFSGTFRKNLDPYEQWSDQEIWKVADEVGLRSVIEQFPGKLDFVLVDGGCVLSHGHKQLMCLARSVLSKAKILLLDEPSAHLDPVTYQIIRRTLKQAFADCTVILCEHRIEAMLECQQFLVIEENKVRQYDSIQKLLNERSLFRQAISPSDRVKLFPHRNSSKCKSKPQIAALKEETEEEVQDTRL
# procedureSummary: CFTR cell surface levels using HRP-tagged ΔF508-CFTR expressing CFBE cells, intrinsic corrector capacity
# Assay type: cell-based
# setupConditions: HRP-tagged ΔF508-CFTR expressing CFBE cells; intrinsic corrector capacity (no co-corrector); 33° C., 20 hours
Is % Activation at least 200%? Then 1 (yes). If not, 0 (no).

{"compoundStructure": "CN1CC[C@H](Oc2cc(C(=O)O)nc3c2c(C2CCC2)nn3-c2ccccc2)C1", "answerLabel": "0 (no)"}
{"compoundStructure": "O=C(O)c1cc(OC2CCCCCCC2)c2c(C3CCC3)nn(-c3ccccc3)c2n1", "answerLabel": "0 (no)"}
{"compoundStructure": "N#CC1CCN(C2CCN(c3cc(C(=O)O)nc4c3c(C3CCC3)nn4-c3ccc(F)cc3)CC2)CC1", "answerLabel": "1 (yes)"}
{"compoundStructure": "CCC1(COc2cc(C(=O)O)nc3c2c(C2CCC2)nn3-c2ccccc2)COC1", "answerLabel": "0 (no)"}
{"compoundStructure": "Cc1cccc(-n2nc(C3CCC3)c3c(N4CCC(N5CCOCC5)CC4)cc(C(=O)O)nc32)c1", "answerLabel": "1 (yes)"}
{"compoundStructure": "CO[C@H]1C[C@@H](c2nn(-c3ccccc3)c3nc(C(=O)O)cc(-c4ccc(N5CCC(C#N)CC5)nc4)c32)C1", "answerLabel": "0 (no)"}

Q: In plain terms: is recorded % Activation at least 200% for `O=C(O)c1cc(N2CCCCCC2)c2c(C3CCC3)nn(-c3ccccc3)c2n1` ?
Result: 0 (no)

Q: Determine whether this compound has % Activation no lower than 200%: `CC(C)c1nn(-c2ccnc(N3CCOCC3)c2)c2nc(C(=O)O)cc(-c3ccc(N4CCC(C#N)CC4)nc3)c12`
Result: 1 (yes)
